- experimental.system: Androgen receptor (Rattus norvegicus); further: assay procedure not described here
- Sequence (P15207 whole entry): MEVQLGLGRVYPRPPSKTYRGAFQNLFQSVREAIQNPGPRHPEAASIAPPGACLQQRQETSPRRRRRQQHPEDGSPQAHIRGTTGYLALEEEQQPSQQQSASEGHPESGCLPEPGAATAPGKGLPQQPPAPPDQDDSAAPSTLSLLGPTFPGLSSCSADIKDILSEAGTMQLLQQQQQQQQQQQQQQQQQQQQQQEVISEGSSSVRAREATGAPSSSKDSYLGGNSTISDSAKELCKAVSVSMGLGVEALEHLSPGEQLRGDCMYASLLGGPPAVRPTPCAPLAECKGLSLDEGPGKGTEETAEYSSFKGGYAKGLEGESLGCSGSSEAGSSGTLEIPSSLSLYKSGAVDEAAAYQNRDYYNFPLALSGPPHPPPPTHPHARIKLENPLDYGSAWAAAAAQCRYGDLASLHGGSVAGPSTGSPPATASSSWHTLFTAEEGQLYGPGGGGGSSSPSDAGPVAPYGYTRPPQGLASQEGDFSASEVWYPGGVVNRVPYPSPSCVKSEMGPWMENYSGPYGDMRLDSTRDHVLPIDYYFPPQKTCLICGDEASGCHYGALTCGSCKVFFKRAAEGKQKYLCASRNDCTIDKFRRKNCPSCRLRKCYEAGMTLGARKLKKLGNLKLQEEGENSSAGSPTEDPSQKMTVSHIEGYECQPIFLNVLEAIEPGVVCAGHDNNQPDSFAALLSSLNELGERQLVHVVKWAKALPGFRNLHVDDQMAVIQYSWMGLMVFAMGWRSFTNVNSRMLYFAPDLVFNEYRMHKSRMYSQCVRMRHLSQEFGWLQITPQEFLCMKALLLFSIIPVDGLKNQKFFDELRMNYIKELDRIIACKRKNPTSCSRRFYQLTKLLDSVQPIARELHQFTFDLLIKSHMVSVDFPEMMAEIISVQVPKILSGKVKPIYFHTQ
readout.kind: AC50

Completed entries (count: 2):
>>> result("O=C(O)c1ccccc1Nc1cccc(C(F)(F)F)c1")
"> 30 µM"
>>> result("CC1(C)S[C@@H]2[C@H](NC(=O)[C@H](N)c3ccc(O)cc3)C(=O)N2[C@H]1C(=O)O")
"> 30 µM"

Per the records, this compound ( NS(=O)(=O)c1cc2c(cc1C(F)(F)F)NC(Cc1ccccc1)NS2(=O)=O (centres undefined) [BENDROFLUMETHIAZIDE] ) has AC50 equal to > 10 µM

Record CN(C)c1cc(NC(=O)CNC(C)(C)C)c(O)c2c1C[C@H]1C[C@H]3[C@H](N(C)C)C(O)=C(C(N)=O)C(=O)[C@@]3(O)C(O)=C1C2=O . Reported AC50: > 30 µM

----------
- experimental.system: Acetylcholinesterase (Homo sapiens, UniProt P22303); further: assay procedure not described here
- Sequence (P22303 whole entry): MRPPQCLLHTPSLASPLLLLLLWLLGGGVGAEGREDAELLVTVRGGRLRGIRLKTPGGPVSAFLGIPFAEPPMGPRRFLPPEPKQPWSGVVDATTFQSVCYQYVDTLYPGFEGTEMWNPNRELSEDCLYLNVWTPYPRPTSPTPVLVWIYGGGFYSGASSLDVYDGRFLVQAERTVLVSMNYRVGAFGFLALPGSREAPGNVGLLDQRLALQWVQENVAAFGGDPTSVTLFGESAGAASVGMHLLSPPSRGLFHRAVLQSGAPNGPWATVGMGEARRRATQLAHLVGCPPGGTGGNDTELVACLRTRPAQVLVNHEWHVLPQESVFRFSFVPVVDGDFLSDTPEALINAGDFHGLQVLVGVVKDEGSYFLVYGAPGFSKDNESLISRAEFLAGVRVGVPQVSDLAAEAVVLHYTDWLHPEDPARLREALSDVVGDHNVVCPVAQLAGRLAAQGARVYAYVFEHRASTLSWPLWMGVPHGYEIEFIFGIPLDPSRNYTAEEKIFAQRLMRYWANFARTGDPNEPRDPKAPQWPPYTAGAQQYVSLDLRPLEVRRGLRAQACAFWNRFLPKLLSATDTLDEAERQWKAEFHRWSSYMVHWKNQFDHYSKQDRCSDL
- Assay type: functional
The entries below come with measured AC50 values attached.

Below are worked cases with known answers.
>>> result("NC(=O)NS(=O)(=O)c1ccc(N)cc1 [SULFACARBAMIDE]")
"> 30 µM"
>>> result("CN1CCN(CCCN2c3ccccc3Sc3ccc(S(=O)(=O)N(C)C)cc32)CC1")
"29 µM"
>>> result("CC(C)[N+](C)(CCOC(=O)C1c2ccccc2Oc2ccccc21)C(C)C")
"> 30 µM"

Attention now turns to another entry.
Form: molecule = CCCCCCCCCCCCCCCCCC(=O)NCCCC[C@H](NC(=O)CC[C@@H](NC(=O)[C@H](C)NC(=O)[C@@H](C)O[C@H]1[C@H](O)[C@@H](CO)OC(O)[C@@H]1NC(C)=O)C(N)=O)C(=O)O (some centres undefined) [ROMURTIDE] ; AC50 = > 30 µM

----------
Overview of recorded AC50 for various molecules
- experimental.system: 5-hydroxytryptamine receptor 2B (Homo sapiens, UniProt P41595); further: assay procedure not described here
- Sequence (P41595 whole entry): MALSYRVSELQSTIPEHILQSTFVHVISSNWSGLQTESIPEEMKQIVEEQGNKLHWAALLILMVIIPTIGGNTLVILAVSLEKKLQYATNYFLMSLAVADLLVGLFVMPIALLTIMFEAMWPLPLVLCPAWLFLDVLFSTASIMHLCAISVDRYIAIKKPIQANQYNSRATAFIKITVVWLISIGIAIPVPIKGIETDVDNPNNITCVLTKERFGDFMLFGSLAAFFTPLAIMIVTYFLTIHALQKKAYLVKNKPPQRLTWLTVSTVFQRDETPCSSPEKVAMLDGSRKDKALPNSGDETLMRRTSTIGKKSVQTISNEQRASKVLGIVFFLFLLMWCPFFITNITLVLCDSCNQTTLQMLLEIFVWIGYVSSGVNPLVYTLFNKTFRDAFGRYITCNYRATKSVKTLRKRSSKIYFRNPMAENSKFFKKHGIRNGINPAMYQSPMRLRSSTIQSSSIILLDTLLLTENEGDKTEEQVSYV
- Format: functional, cell-based

Below, 5 molecules whose answers are already recorded.
>>> result("O=C1CN2Cc3c(ccc(Cl)c3Cl)N=C2N1 [ANAGRELIDE]")
"> 10 µM"
>>> result("CCCCCCOC(=O)CCC(=O)CN [HEXAMINOLEVULINATE]")
"> 30 µM"
>>> result("C[C@@H]1CCC[C@H](C)N1NC(=O)c1ccc(Cl)c(S(N)(=O)=O)c1 [CLOPAMIDE]")
"> 30 µM"
>>> result("COC(=O)N[C@@H](C)CNc1nccc(-c2cn(C(C)C)nc2-c2cc(Cl)cc(NS(C)(=O)=O)c2F)n1")
"28 µM"
>>> result("Nc1ccn([C@@H]2O[C@H](CO)[C@@H](O)C2(F)F)c(=O)n1")
"> 10 µM"

Per the record, CO[C@@]1(NC(=O)CSCC#N)C(=O)N2C(C(=O)O)=C(CSc3nnnn3C)CS[C@@H]21 has AC50 of > 30 µM

COC(=O)[C@H](c1ccccc1Cl)N1CCc2sccc2C1 has a reported AC50 of 2 µM

Input CC1(C)S[C@@H]2[C@H](NC(=O)[C@H](N)c3ccc(O)cc3)C(=O)N2[C@H]1C(=O)O . Output AC50: > 30 µM

Given item NC(=O)c1ncn([C@@H]2O[C@H](CO)[C@@H](O)[C@H]2O)n1 , the value recorded as its AC50 is > 10 µM

----------
Measured AC50 on Alpha-2B adrenergic receptor (Homo sapiens, UniProt P18089) follows.
Sequence (P18089 whole entry): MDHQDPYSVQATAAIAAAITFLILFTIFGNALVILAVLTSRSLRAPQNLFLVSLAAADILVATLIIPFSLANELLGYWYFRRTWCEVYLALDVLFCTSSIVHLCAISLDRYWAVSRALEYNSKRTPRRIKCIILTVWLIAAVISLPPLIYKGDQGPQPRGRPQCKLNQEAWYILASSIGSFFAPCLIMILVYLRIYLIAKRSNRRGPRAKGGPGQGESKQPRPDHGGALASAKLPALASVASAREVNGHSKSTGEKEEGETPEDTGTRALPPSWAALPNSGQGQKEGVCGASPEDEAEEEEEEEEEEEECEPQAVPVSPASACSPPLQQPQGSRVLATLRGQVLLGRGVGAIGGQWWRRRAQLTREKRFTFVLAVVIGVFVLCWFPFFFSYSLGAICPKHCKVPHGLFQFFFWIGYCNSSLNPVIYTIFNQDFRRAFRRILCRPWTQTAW

>>> result("O=C(O)CSCC(=O)NC1CCSC1=O (stereo not drawn)")
"> 30 µM"
>>> result("CC1(C)C(/C=C/C=C/C=C/C=C2\\N(CCCCS(=O)(=O)O)c3ccc4ccccc4c3C2(C)C)=[N+](CCCCS(=O)(=O)[O-])c2ccc3ccccc3c21 [INDOCYANINE GREEN ACID FORM]")
"6.9 µM"
>>> result("CC(=O)OCC(=O)[C@@]1(O)CC[C@H]2[C@@H]3CCC4=CC(=O)CC[C@]4(C)C3=CC[C@@]21C [ANECORTAVE ACETATE]")
"> 10 µM"
>>> result("C[C@]1(COc2ccc(N3CCC(Oc4ccc(OC(F)(F)F)cc4)CC3)cc2)Cn2cc([N+](=O)[O-])nc2O1")
"> 10 µM"
>>> result("CN1CCN(c2c(F)cc3c(=O)c(C(=O)O)cn4c3c2SCC4)CC1")
"9.8 µM"

Form field AC50, entry Cc1cc(CC(=O)O)n(C)c1C(=O)c1ccc(Cl)cc1 [ZOMEPIRAC] : > 30 µM

Record C[C@H]1Oc2cc(cnc2N)-c2c(nn(C)c2C#N)CN(C)C(=O)c2ccc(F)cc21 . Reported AC50: > 30 µM

The compound listed as CCN(CC)CC(=O)Oc1ccc(NC(C)=O)cc1 shows AC50 equal to > 30 µM

----------
- experimental.system: Adenosine receptor A1 (Homo sapiens); further: assay procedure not described here
- Sequence (P30542 whole entry): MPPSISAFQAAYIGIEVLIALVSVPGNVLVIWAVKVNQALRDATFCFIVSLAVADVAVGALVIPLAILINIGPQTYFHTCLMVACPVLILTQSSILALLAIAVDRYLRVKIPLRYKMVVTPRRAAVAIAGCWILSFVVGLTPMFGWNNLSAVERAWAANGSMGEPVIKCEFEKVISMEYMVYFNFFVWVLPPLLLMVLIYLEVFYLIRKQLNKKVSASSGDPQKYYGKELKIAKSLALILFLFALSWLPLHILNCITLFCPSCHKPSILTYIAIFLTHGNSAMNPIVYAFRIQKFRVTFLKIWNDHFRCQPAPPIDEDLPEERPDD
Overview of reported AC50 across a group of compounds:

>>> result("Nc1nc2c(c(=O)[nH]1)N(C=O)C(CNc1ccc(C(=O)N[C@@H](CCC(=O)O)C(=O)O)cc1)CN2 (some centres not stated)")
"> 30 µM"
>>> result("[H]/N=C(\\N/C(=N/[H])NCCCCCCNC(=N)NC(=N)Nc1ccc(Cl)cc1)Nc1ccc(Cl)cc1")
"> 30 µM"
>>> result("COCCCOc1ccnc(C[S+]([O-])c2nc3ccccc3[nH]2)c1C (configuration not stated)")
"22.5 µM"
>>> result("C[C@@H]1CCC[C@H](C)N1NC(=O)c1ccc(Cl)c(S(N)(=O)=O)c1 [CLOPAMIDE]")
"> 30 µM"
>>> result("CC(=O)OCC[N+](C)(C)C")
"> 30 µM"

Form field AC50 for item CN(C)c1cc(NC(=O)CNC(C)(C)C)c(O)c2c1C[C@H]1C[C@H]3[C@H](N(C)C)C(O)=C(C(N)=O)C(=O)[C@@]3(O)C(O)=C1C2=O on Adenosine receptor A1 (Homo sapiens): > 30 µM

Let me check: C=C[C@@]1(C)CC(=O)[C@]2(O)[C@@]3(C)[C@@H](O)CCC(C)(C)[C@@H]3[C@H](OC(=O)CCN(C)C)[C@H](OC(C)=O)[C@@]2(C)O1 , system Adenosine receptor A1 (Homo sapiens), measured AC50 is > 30 µM

----------
- experimental.system: Alpha-1A adrenergic receptor (Homo sapiens, UniProt P35348); further: assay procedure not described here
- Sequence (P35348 whole entry): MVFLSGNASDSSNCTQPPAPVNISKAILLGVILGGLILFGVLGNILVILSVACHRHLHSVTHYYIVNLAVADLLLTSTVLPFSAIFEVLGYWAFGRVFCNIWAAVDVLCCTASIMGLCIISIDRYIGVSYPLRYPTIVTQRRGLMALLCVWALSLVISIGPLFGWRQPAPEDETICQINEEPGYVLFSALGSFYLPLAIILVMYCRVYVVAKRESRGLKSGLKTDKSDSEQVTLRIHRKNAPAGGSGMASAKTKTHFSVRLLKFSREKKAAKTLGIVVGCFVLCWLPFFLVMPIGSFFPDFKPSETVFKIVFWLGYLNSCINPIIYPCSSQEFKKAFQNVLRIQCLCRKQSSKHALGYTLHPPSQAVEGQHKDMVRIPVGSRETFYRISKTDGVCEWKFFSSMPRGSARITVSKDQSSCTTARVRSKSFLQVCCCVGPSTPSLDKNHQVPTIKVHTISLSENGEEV
- Format: functional, cell-based
readout.kind: AC50

Consider the following illustrative entries.
>>> result("CCSc1ccc2c(c1)N(CCCN1CCN(C)CC1)c1ccccc1S2 [THIETHYLPERAZINE]")
"> 30 µM"
>>> result("CC(C)N(CCCCOCC(=O)NS(C)(=O)=O)c1cnc(-c2ccccc2)c(-c2ccccc2)n1 [SELEXIPAG]")
"> 30 µM"

For record C[n+]1ccccc1/C=N/O [PRALIDOXIME] the listed AC50 is > 30 µM

AC50 in this record for O=C1CN=C(c2ccccc2)c2cc(Cl)ccc2N1 [NORDAZEPAM] : > 30 µM

Form field AC50, entry O=C(O)c1ccccc1Nc1cccc(C(F)(F)F)c1 [FLUFENAMIC ACID] : > 30 µM

Per the records, this compound ( CN(C)c1cc(CNCC(C)(C)C)c(O)c2c1C[C@H]1C[C@H]3[C@H](N(C)C)C(O)=C(C(N)=O)C(=O)[C@@]3(O)C(O)=C1C2=O [OMADACYCLINE] ) has AC50 equal to > 30 µM

# AC50 of CCc1oc2ccccc2c1C(=O)c1cc(Br)c(O)c(Br)c1 [BENZBROMARONE] = > 30 µM

For this compound ( CCC(=O)O[C@@H](O[P@](=O)(CCCCc1ccccc1)CC(=O)N1C[C@H](C2CCCCC2)C[C@H]1C(=O)O)C(C)C [FOSINOPRIL] ), measured AC50 is > 30 µM

Noted for CCN(CC)C(=O)C1CN2CCc3cc(OC)c(OC)cc3C2CC1OC(C)=O (centres undefined) [BENZQUINAMIDE] : its AC50 reads > 30 µM
